system: HPV18; test: HPV18 DNA levels in keratinocytes by real-time PCR; assay type: cell-based, Human papilloma virus; details: effective (pseudo) IC50
OBSERVED_PROPERTY: IC50

What the record says about CN(CCCN)CCCNC(=O)CCNC(=O)c1cc(NC(=O)c2cc(NC(=O)c3cc(NC(=O)c4cc(NC(=O)CCNC(=O)c5cc(NC(=O)c6cc(NC(=O)CCCNC(=O)c7cc(NC(=O)c8cc(NC(=O)c9cc(NC(=O)CCNC(=O)c%10cc(NC(=O)c%11cc(NC(=O)c%12nccn%12C)cn%11C)cn%10C)cn9C)cn8C)cn7C)cn6C)cn5C)cn4C)cn3C)cn2C)cn1C [Polyamide 1028, ImPPβPPPγPPβPPPPβTa] : IC50 is 100 to 1000 nM

----------
Give pIC50 for every item shown.
tested on: HPV18; assay: HPV18 DNA levels in keratinocytes by real-time PCR; type: cell-based, Human papilloma virus; details: effective (pseudo) IC50
pIC50: −log10 of the molar value.

The recorded pIC50 with HPV18 for CC(=O)N[C@H](CCNC(=O)c1cc(NC(=O)c2cc(NC(=O)CCNC(=O)c3nc(NC(=O)c4cc(NC(=O)c5cc(NC(=O)CCNC(=O)c6cc(NC(=O)c7cc(NC(=O)c8nccn8C)cn7C)cn6C)cn5C)cn4C)cn3C)cn2C)cn1C)C(=O)Nc1cc(C(=O)Nc2cc(C(=O)NCCC(=O)Nc3cc(C(=O)Nc4cc(C(=O)Nc5cc(C(=O)NCCC(=O)Nc6cc(C(=O)Nc7cc(C(=O)Nc8cc(C(=O)NCCC(=O)NCCCN(C)C)n(C)c8)n(C)c7)n(C)c6)n(C)c5)n(C)c4)n(C)c3)n(C)c2)n(C)c1 [Polyamide 1068, ImPPβPPIβPPγNHAcPPβPPPβPPPβDp] was 6.00 to 7.00

The recorded pIC50 with HPV18 for CN(CCCN)CCCNC(=O)CCNC(=O)c1cc(NC(=O)c2cc(NC(=O)c3cc(NC(=O)CCNC(=O)c4cc(NC(=O)c5cc(NC(=O)c6cc(NC(=O)CCNC(=O)c7cc(NC(=O)c8cc(NC(=O)[C@@H](CCN)NC(=O)c9cc(NC(=O)c%10cc(NC(=O)CCNC(=O)c%11nc(NC(=O)c%12cc(NC(=O)c%13cc(NC(=O)CCNC(=O)c%14cc(NC(=O)c%15cc(NC(=O)c%16nccn%16C)cn%15C)cn%14C)cn%13C)cn%12C)cn%11C)cn%10C)cn9C)cn8C)cn7C)cn6C)cn5C)cn4C)cn3C)cn2C)cn1C [Polyamide 1049, ImPPβPPIβPPγNH2PPβPPPβPPPβTa] was 6.00 to 7.00

----------
test system: HPV18; assay: HPV18 DNA levels in keratinocytes by real-time PCR; type: cell-based, Human papilloma virus; conditions: effective (pseudo) IC50
pIC50: −log10 of the molar value.
OBSERVED_PROPERTY: pIC50

What the record says about CN(CCCN)CCCNC(=O)CCNC(=O)c1cc(NC(=O)c2cc(NC(=O)c3cc(NC(=O)CCNC(=O)c4cc(NC(=O)c5cc(NC(=O)c6cc(NC(=O)CCNC(=O)c7cc(NC(=O)c8cc(NC(=O)[C@H](N)CCNC(=O)c9cc(NC(=O)c%10cc(NC(=O)CCNC(=O)c%11cc(NC(=O)c%12nc(NC(=O)c%13cc(NC(=O)CCNC(=O)c%14cc(NC(=O)c%15cc(NC(=O)c%16nccn%16C)cn%15C)cn%14C)cn%13C)cn%12C)cn%11C)cn%10C)cn9C)cn8C)cn7C)cn6C)cn5C)cn4C)cn3C)cn2C)cn1C [Polyamide 1037, ImPPβPIPβPPγNH2PPβPPPβPPPβTa] : pIC50 is ≥ 7.00

----------
experiment: Membrane integrity / modified propidium iodide procedure; type: cell-based; conditions: rat, H4IIE rat hepatoma cells, membrane integrity assay, read-out: TC50
OBSERVED_PROPERTY: CC50 at 24 h (µM)
# value in µM; strip the unit string

What the record says about CC[C@@]1(O)C(=O)OCc2c1cc1n(c2=O)Cc2cc3ccccc3nc2-1 [camptothecin] : CC50 at 24 h is 5

----------
test system: HPV18; test: HPV18 DNA levels in keratinocytes by real-time PCR; assay type: cell-based, Human papilloma virus; conditions: effective (pseudo) IC50
pIC50: −log10 of the molar value.
Give pIC50 for every item shown.

The recorded pIC50 with HPV18 for CN(C)CCCNC(=O)CCNC(=O)c1cc(NC(=O)CCNC(=O)c2cc(NC(=O)c3cc(NC(=O)c4cc(NC(=O)CCNC(=O)c5cc(NC(=O)c6cc(NC(=O)[C@H](N)CCNC(=O)CCNC(=O)c7cc(NC(=O)c8cc(NC(=O)CCNC(=O)c9cc(NC(=O)c%10cc(NC(=O)c%11cc(NC(=O)c%12nccn%12C)cn%11C)cn%10C)cn9C)cn8C)cn7C)cn6C)cn5C)cn4C)cn3C)cn2C)cn1C [Polyamide 1029, ImPPPβPPβγNH2PPβPPPβPβDp] was ≤ 6.00

The recorded pIC50 with HPV18 for CN(CCCN)CCCNC(=O)CCNC(=O)CCNC(=O)c1cc(NC(=O)c2cc(NC(=O)c3cc(NC(=O)CCNC(=O)c4cc(NC(=O)c5cc(NC(=O)c6cc(NC(=O)CCCNC(=O)c7cc(NC(=O)c8cc(NC(=O)c9cc(NC(=O)CCNC(=O)c%10cc(NC(=O)c%11cc(NC(=O)c%12cc(NC(=O)c%13nccn%13C)cn%12C)cn%11C)cn%10C)cn9C)cn8C)cn7C)cn6C)cn5C)cn4C)cn3C)cn2C)cn1C [Polyamide 1031, ImPPPβPPPγPPPβPPPββTa] was 6.00 to 7.00

----------
experiment: MTT cell viability assay; conditions: human, keratinocytes that maintain HPV 16 episomes
OBSERVED_PROPERTY: CC50 (µM)
# value in µM; strip the unit string

What the record says about Nc1ccn(C[C@@H](CO)OCP(=O)(O)O)c(=O)n1 [Cidofovir, reference compound] : CC50 is 750
